Provenance of the data: the nanobody polyreactivity screen of Harvey et al. (2022)

# method summary: yeast display, Sf9 membrane polyspecificity reagent, FACS + sequencing; frameworks hold sequencing errors

monomer sequence	polyreactivity (PSR sort gate)
QVQLVETGGGLVQAGGSLRLSCAASGGIFLVNDMGWYRPAPGKERELVAAISGSGGSTYYADSVKGRVTISRDNAKNTVYLQMNSLKPEDTAVYYCAAVGTHKAGGAYNYWGQGTQVTVSS	low polyreactivity
QVQLVESGGGLVQAGGSLRLSCAASGITIVYYAMGWYRQAPGKERELVAAITRGGNTYYADSVKGRFTISRDNAKNTVYLQMNSLKPEDTAVYYCAAVGYYYSALDMDYWGQGTQVTVSS	low polyreactivity

###

# method summary: yeast display, Sf9 membrane polyspecificity reagent, FACS + sequencing; frameworks hold sequencing errors
recorded metric: polyreactivity (PSR sort gate)

Answered examples (4):
monomer sequence	result
QVQLVESGGGLVQAGGSLRFSCAASGSTFVYYAMGWYRQAPGKERELVAAITFGGGSTYYADSVKGRFTISRDNAKNTVYLQMNSLKPEDTAVYYCAVYWDDGSAYPPLIVGYDYWGQGTQVTVSS	low polyreactivity
QVQLVESGGGLVQAGGSLRLSCAASGIIFAANAMGWYRQAPGKERELVAAISWSGTSTYYADSVKGRFTISRDNAKNTVYLQMNSLNPEDTAVYYCAVDYYLWSGYSYLYEFEYWGQGTQVTVSS	high polyreactivity
QVQLVESGGGLVHAGGSLRLSCAASGFTFYYYAMGWYRPAPGKERELVAAISSRGGNSYYADSVKGRFTISRDNAKNTVYLQMNSLKPEDTAVYYCASVPLKYDYWGQGTQVTVSS	high polyreactivity
QVQLVESGGGLVQAGGSLRLSCAASGRTFTTYAMGWSRQAPGKERELVAAISSGGSTHYADSVKGRFTISRDNAKYTVYLQMNSLKPEDTAVYYCAADKYYYRTSGQEMDYWGQGTQVTVSS	high polyreactivity

Shifting focus to the sequence that follows.
q: Which polyreactivity (PSR sort gate) reading was recorded for the sequence QVQLVESGGGLVQAGGSLRLSCAASGSIFAANAMGWYRQAPGKERELVAAISWSGGSTYADSVKGRFTISRDNAKNTVYLQMNSLKPEDTAVYYCNAYVYVGTGRGYDTLDYWGQGTQVTVSS ?
a: low polyreactivity

###

# method summary: yeast display, Sf9 membrane polyspecificity reagent, FACS + sequencing; frameworks hold sequencing errors
recorded metric: polyreactivity (PSR sort gate)

Answered examples (4):
monomer sequence	result
QVQLVESGGGLVQAGGSLRLSCAASGIIFCRYAMGWYTQAPGKERELVAAISSSGSTYYADSVKGRFTISRDNATNTVYLQMNSLKPEDTAVYYCAAYSYPAGEYDYWGQGTQVTVSS	low polyreactivity
QVQLVESGGGLVQAGGSLRLSCAASGGTFGRYAMGWYRQAPGKERELVAAITWRVGSTYADSVKGRFTISRDNAKNTVYLQMNSLKPEDTAVYYCAARRRAPGTKYYYWGQGTQVTVSS	low polyreactivity
QVQLVESGGGLVQAGGSLRLSCAASGRIFNLYDMGWYRQAPGKERELVAAIRIGDRTYYADSVKGRFTISRDNAKNTVYLQMNSLKPEDTAVYYCNREYLSNRDKRFYYWGQGTQVTVSS	low polyreactivity
QVQLVESGGGLVQAGGSLRLSCAASGSIFRFNAMGWNRPAPGKERELVAAITSSGGSTYYADSVKGRFTISRDNAKNTVYLQMNSLKPEDTAVYYCAKRWLYPISYDYWGQGTQVTVSS	high polyreactivity

Shifting focus to the sequence that follows.
q: Which polyreactivity (PSR sort gate) reading was recorded for the sequence QVQLVESGGGLVQAGGSLRLSCAASGFTFTYYALGGYRQAPGKERELVARIRGRSGSTYYADSVKGRFTISRDNAKNTVYLQMNSLKPEDTAVYYCNADFNRTVAGTPEVDYWGQGTQVTVSS ?
a: high polyreactivity
